For each of the molecules below, state its IC50.
assayedSystem: MMP-1 (Homo sapiens, UniProt P03956)
Sequence (P03956 100-469, species assumed): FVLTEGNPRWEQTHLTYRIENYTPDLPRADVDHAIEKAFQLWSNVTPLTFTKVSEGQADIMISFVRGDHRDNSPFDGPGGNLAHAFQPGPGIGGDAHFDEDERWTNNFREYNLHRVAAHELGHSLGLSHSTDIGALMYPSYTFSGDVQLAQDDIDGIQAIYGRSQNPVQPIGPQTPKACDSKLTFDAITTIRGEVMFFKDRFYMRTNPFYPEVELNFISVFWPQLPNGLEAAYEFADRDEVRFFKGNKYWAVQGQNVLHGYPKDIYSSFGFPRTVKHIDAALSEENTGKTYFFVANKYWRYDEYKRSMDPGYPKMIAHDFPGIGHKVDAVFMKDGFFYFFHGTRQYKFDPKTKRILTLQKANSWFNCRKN
runDescription: MMP-1 inhibitory action (Type I collagen Activity Measurement kit, FITC-labeled collagen type I)
Type: biochemical
experimentalParameters: MMP-1 inhibitory action, FITC-labeled collagen type I, 37° C. for 3 hr; read-out: IC50 MMP1 (Experimental Example 2)
Method: For MMP-1 Assay, Type I collagen Activity Measurement kit (YAGAI YU-72013) modified to a 96-well plate format was used. The principle of the kit is based on the property of collagen that becomes soluble in ethanol after being cleaved by MMP-1. […] The reaction was terminated by addition of Tris-HCl buffer containing ethanol. […] The collagenase activity of MMP-1 was determined by measuring FITC fluorescence intensity (excitation wavelength 485 nm, emission wavelength 530 nm) of each well. […]

Quick check: IC50 on MMP-1 (Homo sapiens, UniProt P03956), item O=C(O)C1(NS(=O)(=O)c2ccc3c(c2)Cc2cc(Cl)ccc2-3)CC1c1ccccc1 (centres unmarked) [Example 1-94] ?
≥ 1 µM

Quick check: IC50 on MMP-1 (Homo sapiens, UniProt P03956), item O=C(O)C1(NS(=O)(=O)N2CC(Oc3ccc(Cl)cc3)C2)CC1c1ccccc1 (centres unmarked) [Example 2-15] ?
≥ 10 µM

Quick check: IC50 on MMP-1 (Homo sapiens, UniProt P03956), item O=C(O)C1(NS(=O)(=O)c2ccc(-c3ccc(Cl)cc3)s2)CC1c1cccc(NS(=O)(=O)C(F)(F)F)c1 (centres unmarked) [Example 1-132] ?
≥ 1 µM

Quick check: IC50 on MMP-1 (Homo sapiens, UniProt P03956), item O=C(O)[C@]1(NS(=O)(=O)c2ccc(-c3ccc(Cl)cc3)s2)C[C@@H]1c1ccccc1Br [Example 2-178] ?
≥ 10 µM

Quick check: IC50 on MMP-1 (Homo sapiens, UniProt P03956), item O=C(O)C1(NS(=O)(=O)N2CCN(c3ncc(Br)cn3)CC2)CC1c1ccccc1 (centres unmarked) [Example 2-155] ?
≥ 10 µM

----------
assayedSystem: MMP-1 (Homo sapiens, UniProt P03956)
runDescription: MMP-1 inhibitory action (Type I collagen Activity Measurement kit, FITC-labeled collagen type I)
Format: biochemical
experimentalParameters: Experimental Example 2; read-out: IC50 MMP1
pIC50: −log10 of the molar value.
For each of the compounds below, state its pIC50.

Bench note: what pIC50 did CC1[C@H](c2ccccc2)[C@]1(NS(=O)(=O)N1CCC(OCc2ccc(Cl)cc2Cl)C1)C(=O)O (stereo partly shown) [Example 2-553] show?
≤ 6.00

Bench note: what pIC50 did COc1ccc2[nH]c(-c3ccc(S(=O)(=O)N[C@@]4(C(=O)O)C(C)[C@@H]4c4ccccc4)s3)nc2c1 (stereo partly shown) [Example 2-607] show?
≤ 6.00

Bench note: what pIC50 did CC1[C@H](c2ccccc2)[C@]1(NS(=O)(=O)c1ccc(-n2cc(C(F)(F)F)cn2)s1)C(=O)O (stereo partly shown) [Example 2-577] show?
> 6.00

Bench note: what pIC50 did O=C(O)C1(NS(=O)(=O)c2ccc(-c3cc(C(F)(F)F)on3)s2)C2CCOc3ccccc3C21 (stereo not shown) [Example 2-370] show?
> 6.00

Bench note: what pIC50 did CC1[C@H](c2ccccc2)[C@]1(NS(=O)(=O)N1CCN(c2nc3ccccc3s2)CC1)C(=O)O (stereo partly shown) [Example 2-463] show?
≤ 5.00

Bench note: what pIC50 did O=C(O)C1(NS(=O)(=O)c2ccc(-c3cc(C(F)(F)F)on3)s2)CC1c1cccc(CCO)c1 (stereo not shown) [Example 2-268] show?
≤ 6.00

Bench note: what pIC50 did NC(=O)CCc1ccc([C@H]2C[C@@]2(NS(=O)(=O)c2ccc(-c3cc(C(F)(F)F)on3)s2)C(=O)O)cc1 [Example 2-278] show?
> 6.00

Bench note: what pIC50 did C[C@]1(c2ccccc2)C[C@@]1(NS(=O)(=O)c1ccc(N2CCC(F)(F)C2)s1)C(=O)O [Example 2-467] show?
≤ 5.00

Bench note: what pIC50 did CC1[C@](C)(c2ccccc2)[C@]1(NS(=O)(=O)c1ccc(-c2cc(C(F)(F)F)on2)s1)C(=O)O (stereo partly shown) [Example 2-623] show?
> 6.00

Bench note: what pIC50 did O=C(O)C1(NS(=O)(=O)c2ccc(-c3ccc(Cl)cc3)s2)C2Cc3ccccc3C21 (stereo not shown) [Example 2-431] show?
≤ 6.00

Bench note: what pIC50 did C[C@]1(c2ccccc2)C[C@@]1(NS(=O)(=O)c1ccc(-c2ccc(Cl)cc2Cl)s1)C(=O)O [Example 2-566] show?
≤ 6.00

Bench note: what pIC50 did O=C(O)C1(NS(=O)(=O)c2ccc(-c3ccc(Cl)cc3)s2)CC1c1cccc(NS(=O)(=O)N2CCOCC2)c1 (stereo not shown) [Example 2-269] show?
≤ 6.00

Bench note: what pIC50 did CC1[C@H](c2ccccc2)[C@]1(NS(=O)(=O)c1ccc(-n2cc(C(F)(F)F)cn2)nc1)C(=O)O (stereo partly shown) [Example 2-556] show?
≤ 6.00

----------
assayedSystem: aggrecanase-1 (Homo sapiens, UniProt O75173)
Sequence (O75173 213-837, species assumed): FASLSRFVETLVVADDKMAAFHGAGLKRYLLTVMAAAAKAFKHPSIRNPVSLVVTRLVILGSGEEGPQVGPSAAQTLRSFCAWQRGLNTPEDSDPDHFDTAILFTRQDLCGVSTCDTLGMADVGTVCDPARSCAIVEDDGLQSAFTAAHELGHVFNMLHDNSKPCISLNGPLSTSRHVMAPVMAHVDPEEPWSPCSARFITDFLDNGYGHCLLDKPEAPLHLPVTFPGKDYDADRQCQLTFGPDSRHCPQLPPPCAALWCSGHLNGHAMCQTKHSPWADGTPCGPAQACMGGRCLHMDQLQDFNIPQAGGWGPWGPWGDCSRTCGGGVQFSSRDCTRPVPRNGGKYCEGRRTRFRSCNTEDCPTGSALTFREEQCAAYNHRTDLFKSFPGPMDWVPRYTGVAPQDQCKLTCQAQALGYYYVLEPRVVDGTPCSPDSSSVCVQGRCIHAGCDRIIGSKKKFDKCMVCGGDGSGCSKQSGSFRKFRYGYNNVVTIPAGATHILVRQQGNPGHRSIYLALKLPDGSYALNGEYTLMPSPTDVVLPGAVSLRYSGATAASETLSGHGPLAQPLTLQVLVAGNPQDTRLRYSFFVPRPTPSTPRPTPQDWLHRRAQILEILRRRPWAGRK
runDescription: Aggrecanase-1 inhibitory action (Particle Assay, GAG release from aggrecan-containing polyacrylamide particles)
Assay type: biochemical
experimentalParameters: Experimental Example 1; read-out: IC50 AG1
Description: Particle Assay was used for determination of aggrecanase activity. The enzyme and substrate were diluted with Tris-HCl buffer, and test compounds were diluted with dimethyl sulfoxide (DMSO). […] After incubation, the supernatant was transferred to another plate, and mixed with 1,9-dimethylmethylene blue. The absorbence at 595 nm was measured to quantify the amount of glycosaminoglycan (GAG) released in the reaction supernatant. […]
measuredMetric: IC50

Quick check: IC50 on aggrecanase-1 (Homo sapiens, UniProt O75173), item O=C(NC1CC1)OCC1(c2ccccc2)CC1(NS(=O)(=O)c1ccc(-c2cc(C(F)(F)F)on2)s1)C(=O)O (centres unmarked) [Example 2-331] ?
< 1 µM

Quick check: IC50 on aggrecanase-1 (Homo sapiens, UniProt O75173), item Cn1cc(-c2ccc(S(=O)(=O)N[C@@]3(C(=O)O)C[C@@H]3c3ccccc3)s2)cn1 [Example 2-387] ?
≥ 1 µM

Quick check: IC50 on aggrecanase-1 (Homo sapiens, UniProt O75173), item CC1[C@H](c2ccccc2)[C@]1(NS(=O)(=O)c1ccc(-c2cnc3ccccc3n2)s1)C(=O)O (some centres unmarked) [Example 2-456] ?
≥ 1 µM

Quick check: IC50 on aggrecanase-1 (Homo sapiens, UniProt O75173), item Cc1cc(N2CCN(S(=O)(=O)N[C@@]3(C(=O)O)C(C)[C@@H]3c3ccccc3)CC2)no1 (some centres unmarked) [Example 2-475] ?
≥ 1 µM

Quick check: IC50 on aggrecanase-1 (Homo sapiens, UniProt O75173), item C[C@]1(c2ccccc2)C[C@@]1(NS(=O)(=O)c1ccc(-c2ccc(N)cc2)s1)C(=O)O [Example 2-583] ?
≥ 1 µM
